Test system: MS2 coat protein
test.description: apparent KD of MS2 coat protein, switch OFF state (with FMN for OFF switches, without FMN for ON switches); designed switch direction (-1 OFF switch, 1 ON switch): 1; higher = weaker reporter binding
details: FMN input: 0 or 200 uM; Eterna round: R93 (includes R88 designs)
measured.metric: apparent KD of MS2 coat protein (nM)
The response must be a number in nM with no trailing unit.

Examples with answers:
* AAGAAACAUGAGGAUCACCCAUGUACCCAAAACGGAGGAUAUGGGAAAGAAAGAAAGAAACCAGAAGGCCGAUGAA [Amyrtaeus] | 88.8
* AGGAAACAUGAGGAUCACCCAUGUAAAAAUAACACAGGAUAUGGAAACACGAAAGUGAAACCAGAAGGGUGAAAAG [77%, Mat - Mod of Eli, 16] | 26.1

// next item, apparent KD of MS2 coat protein requested
Inquiry: // lookup apparent KD of MS2 coat protein | system=MS2 coat protein | key= AACAAUCUAUCUGAGGAUAUGUGUCAAAAGACAUGAGGAUCACCCAUGUAAAAACAUGGAAAAACACAGAAGGCAGAUAGAUUGA [SS2: 1149]
Reply text: 75.4

----------
Test system: MS2 coat protein
test.description: apparent KD of MS2 coat protein; designed switch direction (-1 OFF switch, 1 ON switch): -1; higher = weaker reporter binding
details: input ligand: none
Parameter: apparent KD of MS2 coat protein. Scope: all listed entries.
The response must be a number in nM with no trailing unit.

Examples with answers:
* UAAUAAAGGGUAGGAUAUGCCGAACAAACACGAGCAGAAGGACCAAAACACUACUUGAGGAUCACCCAAGUGUCCUUCCGUGGU [Mutated MS2 EX1.6] (Eterna round: R96, puzzle: Exclusion NG 1) | 17.2
* CCAAGCUUGUUCAUUAACCACAUGAGGAUCACCCAUGUCUUGGCAAUUAUGACUUGCCCGUCAGGUGCUCGUCUUAU [Sensor-V1 #35] (Eterna round: R97, puzzle: Sensor, turn-off variant 1) | 71.3
* CAGUACUGAGGAUAUACAUGAGGAUCACCCAUGUGUGUGAAUUUUAUGUGGUCGUAAUGUAGAAGGCAGUACUG [JR_Ex3_Sub027] (Eterna round: R97, puzzle: Exclusion 3) | 86.3

Inquiry: Give its apparent KD of MS2 coat protein value. Item: GUCAGCUCGUCAGGAUAUACAUGAGGAUCACCCAUGUGGUCAUUAGCAGCUUCGGCUGCAUUAAUGUAGAAGGGACGAGCUGAC [ENG2/8-B1] (Eterna round: R96, puzzle: Exclusion NG 2)
Reply text: 591

Inquiry: Give its apparent KD of MS2 coat protein value. Item: CGAGCUGCUGUGAGGAUAUACCUGUGGGUGCGUGGGUAGAAGGCACAUGAGGAUCACCCAUGUCCUGCAGCUCG [salish99_bmx4_r4_105] (Eterna round: R97, puzzle: Brourd's mod of Exclusion 4)
Reply text: 1060

Inquiry: Give its apparent KD of MS2 coat protein value. Item: GGGCUAGAAGGAGGAUAUUGAAGAUCCUCACGACAUGAGGAUCACCCAUGUGGUUUAGCAAGGGCCAAGAAGGCCUAUAGCCCA [Zasoan] (Eterna round: R96, puzzle: Exclusion NG 2)
Reply text: 77.3

Inquiry: Give its apparent KD of MS2 coat protein value. Item: CAUGAUUGGCGAGGAUAUUGAUCUAGUUGGCGACGAGAAGGCGCCUGUCACAUGAGGAUCACCCAUGUGUGUCUGGUGAAUGAG [Ex NG1 #86] (Eterna round: R96, puzzle: Exclusion NG 1)
Reply text: 63.3

Inquiry: Give its apparent KD of MS2 coat protein value. Item: AAUAACAGAGGAUAUACUAUUUUAUGUGUUUGUUAUUUUAAACAUGAGGAUCACCCAUGUAGAAGGCUGAUUAA [JMF 44] (Eterna round: R96, puzzle: Exclusion 2)
Reply text: 42.7

Inquiry: Give its apparent KD of MS2 coat protein value. Item: AACCUUUAGUUAGGAUAUCGCAUCACCGUCAAGUGAGAAGGGACAUGAGGAUCACCCAUGUCUUCCGUGGGCUACACUGCUUCU [Eternabot solution 5] (Eterna round: R96, puzzle: Exclusion NG 1)
Reply text: 27.4

----------
Parameter: apparent KD of MS2 coat protein. Scope: all listed entries.
Test system: MS2 coat protein
test.description: apparent KD of MS2 coat protein; designed switch direction (-1 OFF switch, 1 ON switch): 1; higher = weaker reporter binding
details: input ligand: microRNA oligo, concentration not stated
Answer shape: numeric part, then the unit.

Examples with answers:
• CCGAUGGUAUACUAGGAUAUGGGCGCCCUUACAUGAGGAUCACCCAUGUUUACACAAAUCCGCGGCCAGAAGGAGUUCAUGGGAG [Orgere] (Eterna round: R96, puzzle: Same State 2) = 85.6 nM
• GAGGGCGGAAACAACAUGAGGAUCACCCAUGUUGCCGAAAGGCAGGAUAUCCGGCGAAAGCAGAAGGAGAAGGGUCGAAAAGAA [AK SSNG3-V2-41] (Eterna round: R96, puzzle: Same State NG 3) = 20 nM
• UGGCUCAGACUAGGAUAUACGUGGUCACAUGAGGAUCACCCAUGUCUCGAGCUUCGGCUCGAGGCGUAGAAGGAGUCUGAGCCA [SSNG2/6-D2] (Eterna round: R96, puzzle: Same State NG 2) = 199 nM
• AUAAGACACAUGAGGAUCACCCAUGUGGCCGUAGUCGGCUCACAGGAUAUCAAGCUACUAGUGCUUGAGAAGGGUGAGACAAGC [Raar Mod] (Eterna round: R96, puzzle: Same State NG 3) = 190 nM
• GGUCGGACUCACAUGAGGAUCACCCAUGUUGCGGAAACGCGGCAGGAUAUCUGUCCGAAAAGGUCAGAGAAGGGCUAACCGACC [Fiskers NG3ss - 56] (Eterna round: R96, puzzle: Same State NG 3) = 254 nM

Inquiry: // lookup apparent KD of MS2 coat protein | system=MS2 coat protein | key= GUGGUCAGACAUGAGGAUCACCCAUGUGGAAUAAAUAAGGGAAAGGAUAUAAAAUAUAGGAUAUAUUAGAAGGUUCGGUUGGUG (Eterna round: R96, puzzle: Same State NG 3)
Reply text: 83.9 nM

Inquiry: // lookup apparent KD of MS2 coat protein | system=MS2 coat protein | key= AUUAUUUAUGCAGGAUAUGAUUAACAUGAGGAUCACCCAUGUGGUGUUGUGAGUAAGGAGAGUGAUCAGAAGGGCAUUUUAUUU [JMF's solution 50] (Eterna round: R96, puzzle: Same State NG 2)
Reply text: 522 nM

Inquiry: // lookup apparent KD of MS2 coat protein | system=MS2 coat protein | key= UAUCCAUAGAUAGGAUAUCAGUAUACAUGAGGAUCACCCAUGUUAUAUUUGGUUUUAAGUUAGUCUGAGAAGGAUCUUGAUGAA [SameState NG2 #3] (Eterna round: R96, puzzle: Same State NG 2)
Reply text: 11.1 nM

Inquiry: // lookup apparent KD of MS2 coat protein | system=MS2 coat protein | key= AGACACAUGAGGAUCACCCAUGUCAUGAGCUUAGCUCGGGCACAGGAUAUCCGGUCCUAGAGACCGGAGAAGGGUGGCCGAAAA [Zara MOD] (Eterna round: R96, puzzle: Same State NG 3)
Reply text: 323 nM

Inquiry: // lookup apparent KD of MS2 coat protein | system=MS2 coat protein | key= UUUAUAUUCAGAGGAUAUUGAUGUUGUAUUUUACAAGAAGGCUGUUUGUUUUGUAAUGUUAUUAUACAUGAGGAUCACCCAUGU [JR_SSNG1_Sub015] (Eterna round: R96, puzzle: Same State NG 1)
Reply text: 16.8 nM

----------
Tested on: MS2 coat protein
test.description: apparent KD of MS2 coat protein; higher = weaker reporter binding
details: Eterna round: R107; input ligand: arginine 13.2 mM
measured.metric: apparent KD of MS2 coat protein

Examples with answers:
- GACCUUAUCUGAAGGAGCGAGGUAAAUAGGGAUAGGAACAUGAGGAUCACCCAUGUGCGGCCUCAGGUAGGUCGCAGAUGAGAUU [Exclusion Arginine B GF28]: 42 nM
- AUACAUGAGGAUCACCCAUGUGAUGGCCGGCGAGGACCGGUACGGCCGCCACUCGUGAUCCGUCCCGAGAGCAAAGCUCUCGACA [Raatala]: 4.9 nM

// next item, apparent KD of MS2 coat protein requested
Inquiry: Give its apparent KD of MS2 coat protein value. Item: UGACAUUGCUCAGAUACCAGACAUGAGGAUCACCCAUGUACCAAGAAAGUACAAUAAAAUGUCCCUUGGCAGCUGAGCAAUGUCU [TheoBX 8 #MS2Left #Theo2]
Reply text: 61.2 nM

----------
Test system: MS2 coat protein
test.description: apparent KD of MS2 coat protein; higher = weaker reporter binding
details: Eterna round: R107; input ligand: theophylline 2 mM
measured.metric: apparent KD of MS2 coat protein (nM)
The response must be a number in nM with no trailing unit.

Inquiry: Give its apparent KD of MS2 coat protein value. Item: AUCUUUGACGAUCUGGGAAAACCAGAUCGGCGAGGACCGGUACGGCCGCCACUCGUGUAUAAUAUACAUGAGGAUCACCCAUGUA [#19 Tryptophan A Same State]
Reply text: 53.9

Inquiry: Give its apparent KD of MS2 coat protein value. Item: AAAGAUCGGAAACGAUCGGCGGCUUGGGCGCGAGGACCGGUACGGCCGCCACUCGGGCAACAUGAGGAUCACCCAUGUUCCUCAU [ETA NP+V+V2 #17]
Reply text: 180

Inquiry: Give its apparent KD of MS2 coat protein value. Item: ACAUGAGGAUCACCCAUGUGAAGGCACGAUACCAGCUGAUCCCGUGGCCCUUGGCAGCGUCCGGUUUGGUCCGGCGGAUGGGACG [vvamullin]
Reply text: 21.9

Inquiry: Give its apparent KD of MS2 coat protein value. Item: AAGCGGGCGACGGCCGCCACUUGCCUGUAAUUAGAGAAGGCACAUGAGGAUCACCCAUGUCCCGCAAGGACCGGGUUGCCUCACU [Ditiraorce]
Reply text: 580

Inquiry: Give its apparent KD of MS2 coat protein value. Item: UAAUCAGUGCCGGUUCUCGGAUCCUCAUGUCGAGGACCGGUACGGCCGCCACUCGAAACAUGAGGAUCACCCAUGUAAUAAUAAU [#09 Exclusion Tryptophan A]
Reply text: 103

Inquiry: Give its apparent KD of MS2 coat protein value. Item: AAUUAUCAGUCGGCCGCCACUGACACAUGAGGAUCACCCAUGUAAUAUGGGUAAAAUUAACUGAACAGGACCGGGACAAAUGCUA [JR_SSTryptoB_Sub021]
Reply text: 803

Inquiry: Give its apparent KD of MS2 coat protein value. Item: GAAGACAUGAGGAUCACCCAUGUUACACACCGAGGACCGGUACGGCCGCCACUCGUAGGCCCUCGGCUCACCUGAGAUCCGCAUC [theeternabot_sameState_MS2_Trp_A_11]
Reply text: 31.9

Inquiry: Give its apparent KD of MS2 coat protein value. Item: UGGUACAUGAGGAUCACCCAUGUCCUCAUCCGAGGACCGGUACGGCCGCCACUCGAAAUUGCGAUCGGCACAAAACAAAUGCUUG [theeternabot_sameState_MS2_Trp_A_39]
Reply text: 179

Inquiry: Give its apparent KD of MS2 coat protein value. Item: UGAUGGUACGGAAGGAGCGUGUAAGAACAAGAACAUGAGGAUCACCCAUGUAUUAAUUUAACACAGGUAGGUCGCCGAGUUAUUG [11.G]
Reply text: 23.2

Inquiry: Give its apparent KD of MS2 coat protein value. Item: CGUCGAGACUGAAGGAGCGAGAUAACAACAUUGGGUCUCAACACAUGAGGAUCACCCAUGUCUCAGGUAGGUCGCGGUGUCACCG [Exclusion Arginine B GF21]
Reply text: 150

Inquiry: Give its apparent KD of MS2 coat protein value. Item: GGGAGGUAGGCGGCCGCCACUGAUUUUCAUAUAUAUAUAACAUGAGGAUCACCCAUGUAGAUAUGCAGGACCGGGCCUGUUUUUU [aaaK]
Reply text: 26.3

Inquiry: Give its apparent KD of MS2 coat protein value. Item: CCUAUGCAGUCGGCCGCCACUGAACAUGAGGAUCACCCAUGUAAUUAAAAUUAAGGUCCUAAAAUCAGGACCGGGACUGUAUAGG [Ex Tryptophan B 6]
Reply text: 56.6

Recorded values, source the supplement of paper PMC9170038.
